So I've got a bunch of compounds here, and I need their IC50 values.
test.system: CYP 2D6 (Homo sapiens (Human))
Sequence (P10635 whole entry): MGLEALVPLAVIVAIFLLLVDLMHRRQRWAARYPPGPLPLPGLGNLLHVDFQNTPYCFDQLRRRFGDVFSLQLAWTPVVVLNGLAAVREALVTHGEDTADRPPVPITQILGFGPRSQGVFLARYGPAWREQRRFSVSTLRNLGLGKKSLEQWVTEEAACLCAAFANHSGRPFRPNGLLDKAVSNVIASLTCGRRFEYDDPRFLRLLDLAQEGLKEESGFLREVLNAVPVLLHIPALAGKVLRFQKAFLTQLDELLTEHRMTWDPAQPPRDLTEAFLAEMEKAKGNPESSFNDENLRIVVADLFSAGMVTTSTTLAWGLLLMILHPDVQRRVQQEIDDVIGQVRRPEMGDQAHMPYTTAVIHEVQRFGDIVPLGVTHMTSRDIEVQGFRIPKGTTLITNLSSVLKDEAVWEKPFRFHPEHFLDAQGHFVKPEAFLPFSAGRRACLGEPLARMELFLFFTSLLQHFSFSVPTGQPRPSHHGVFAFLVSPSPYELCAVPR
Type: in vitro ADME
experimental.parameters: microsomes, 10 min
Non-standard residues stand in square brackets, D forms with d. Residues, ends and D or L forms follow the SMILES beside them. *: point of attachment. dBta = N[C@H](Cc1csc2ccccc12)C(=O)O; Ac4c(3-oxa) = NC1(C(=O)O)COC1; Api = NC1(C(=O)O)CCNCC1; X3 = NCC1(C(=O)*)CCC1; βAla = NCCC(=O)O

In the examples that follow, each entry is paired with its recorded IC50.
compound	IC50
NC(=O)C1(NC(=O)[C@H](Cc2ccccc2)NC(=O)[C@@H](Cc2c[nH]c3ccccc23)NC(=O)[C@@H](Cc2csc3ccccc23)NC(=O)C2(N)COC2)CCNCC1 [Compound 24] (H-[Ac4c(3-oxa)][dBta][dW]F[Api]-NH2)	> 50 µM
NCCC(=O)N[C@H](Cc1csc2ccccc12)C(=O)N[C@H](Cc1c[nH]c2ccccc12)C(=O)N[C@@H](Cc1ccccc1)C(=O)NC1(C(N)=O)CCNCC1 [Compound 16] (H-[βAla][dBta][dW]F[Api]-NH2)	35.4 µM

Fill in IC50 for each of the 3 compounds listed.
1. NCCCC[C@@H](NC(=O)[C@H](Cc1ccccc1)NC(=O)[C@@H](Cc1c[nH]c2ccccc12)NC(=O)[C@@H](Cc1csc2ccccc12)NC(=O)C1(N)COC1)C(N)=O [Compound 54] (H-[Ac4c(3-oxa)][dBta][dW]F[dK]-NH2)
2. NCCCC[C@@H](NC(=O)[C@H](Cc1ccccc1)NC(=O)[C@@H](Cc1c[nH]c2ccccc12)NC(=O)[C@@H](Cc1csc2ccccc12)NC(=O)C1(CN)CCC1)C(N)=O [Compound 52] (X3-[dBta][dW]F[dK]-NH2)
3. NC(=O)[C@H](Cc1ccccc1)NC(=O)[C@@H](Cc1c[nH]c2ccccc12)NC(=O)[C@@H](Cc1csc2ccccc12)NC(=O)[C@H]1CNCCO1

Result:
1: > 50 µM; 2: > 50 µM; 3: > 50 µM

Values compiled from patent US20240158438A1.
